# Experimental System: PPAR γ-RXRα heterodimer (Homo sapiens, UniProt P37231)
# Sequence (P37231 29-505 limits assumed): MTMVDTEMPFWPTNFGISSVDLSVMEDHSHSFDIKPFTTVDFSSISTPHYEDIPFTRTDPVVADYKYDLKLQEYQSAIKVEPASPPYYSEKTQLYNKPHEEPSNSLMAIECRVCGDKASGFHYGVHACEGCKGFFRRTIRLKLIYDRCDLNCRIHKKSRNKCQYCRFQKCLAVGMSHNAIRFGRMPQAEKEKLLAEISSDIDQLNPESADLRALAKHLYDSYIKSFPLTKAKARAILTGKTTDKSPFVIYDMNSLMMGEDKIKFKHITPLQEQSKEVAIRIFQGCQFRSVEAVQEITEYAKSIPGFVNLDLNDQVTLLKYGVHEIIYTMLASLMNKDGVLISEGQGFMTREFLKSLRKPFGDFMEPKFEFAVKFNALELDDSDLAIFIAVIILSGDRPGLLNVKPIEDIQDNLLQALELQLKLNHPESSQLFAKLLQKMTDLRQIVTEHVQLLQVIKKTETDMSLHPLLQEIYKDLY
# Sequence (P19793 whole entry partner): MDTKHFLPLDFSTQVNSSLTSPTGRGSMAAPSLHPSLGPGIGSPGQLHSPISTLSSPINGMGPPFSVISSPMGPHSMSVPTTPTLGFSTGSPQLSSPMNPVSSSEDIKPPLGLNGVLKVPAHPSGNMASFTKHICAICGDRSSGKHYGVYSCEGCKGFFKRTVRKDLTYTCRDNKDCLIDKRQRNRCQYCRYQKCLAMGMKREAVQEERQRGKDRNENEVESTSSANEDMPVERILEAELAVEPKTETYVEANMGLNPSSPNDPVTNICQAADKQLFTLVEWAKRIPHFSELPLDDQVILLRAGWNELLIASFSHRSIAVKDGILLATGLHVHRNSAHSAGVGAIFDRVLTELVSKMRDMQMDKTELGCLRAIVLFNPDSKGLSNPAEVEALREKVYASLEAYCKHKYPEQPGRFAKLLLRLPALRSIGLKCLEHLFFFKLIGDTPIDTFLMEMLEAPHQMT
# Method Notes: PPAR γ-RXRα heterodimer ligand activity (luciferase reporter in PPAR γ:RXRα:4ERPP/CHO-K1 cells)
# Condition Context: compound concentration showing 50% of the maximum induction rate of luciferase activity; 18-24 hr incubation
Quantity: pEC50
The value called pEC50 is obtained by taking minus log10 of the concentration in mol/L.

Worked examples, 2 molecules total:
1) COc1ccc(C(=O)c2ccc(OCCc3nc(-c4ccccc4)oc3C)nc2)c(O[C@H](C)C(=O)O)c1 ... 7.82
2) COc1cc(C)c(C(=O)c2ccc(OCc3nc(-c4ccccc4)oc3C)cc2)c(O[C@H](C)C(=O)O)c1 ... 9.00

Item under review: COc1ccc(C(=O)c2ccc(OCc3nc(-c4ccccc4)oc3C)cc2)c(O[C@H](C)C(=O)O)c1 . Reported pEC50?
8.29

Hello, the source for this data is patent US20090054435A1, in case you need it.
